# method-notes: NFAT Signaling Pathway (AID 444);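 note: carbachol stimulus at about its EC50 of 1 µM final; % is set by controls: 0 for no effect and ±100 for the full control effect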
# measurement-setup: Jurkat NFAT-bla M1, carbachol, beta-lactamase ratio, 5 h; at 7.69 µM (top of the series) unless noted
Inconclusive results are not listed.

{"smiles-structure": "O=c1[nH]c(SCc2cccc([N+](=O)[O-])c2)nc2nc[nH]c12", "activity change, negative = inhibition [%]": -8.58}
{"smiles-structure": "N=C(N)SCCSC(=N)N", "activity change, negative = inhibition [%]": -2.2}
{"smiles-structure": "C[C@@H](C(=O)O)/C(=C/c1ccc2c(c1)OCO2)C(=O)O", "activity change, negative = inhibition [%]": 1.64}
{"smiles-structure": "N#C/C(=C\\NC(=S)c1ccncc1)c1nc2ccccc2s1", "activity change, negative = inhibition [%]": 8.12}
{"smiles-structure": "N#CC(C#N)=CNCCN1CCN(C=C(C#N)C#N)CC1", "activity change, negative = inhibition [%]": 2.39}
{"smiles-structure": "O=C(Nc1cccc2ccccc12)c1ccccc1", "activity change, negative = inhibition [%]": -11.4}

---

# method-notes: NFAT Signaling Pathway (AID 444);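 note: carbachol stimulus at about its EC50 of 1 µM final; % is set by controls: 0 for no effect and ±100 for the full control effect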
# measurement-setup: Jurkat NFAT-bla M1, carbachol, beta-lactamase ratio, 5 h; at 7.69 µM (top of the series) unless noted
# Protocol: NCGC Assay Overview: The nuclear factor of activated T cells (NFAT) family of transcription factors has been found primarily in most immune system cells and some other non-immune cells. NFAT plays the immunomodulatory role, primarily in T-cell activation and differentiation. […] NCGC Assay Protocol Summary: The cells were prepared in RPMI 1640 medium containing 0.1% dialyzed FBS and 25 mM HEPES at 1.6 x 10^6cell/ml. […] The %Activity was determined from the ratio of 460nm/530nm. […]
Results filed as inconclusive are left out. The source made the active and inactive calls. Calls come from the whole dose curve; as a rule, active = well fitted curve in either direction with a large enough effect (not every such curve was filed as active); inconclusive = small, poorly fitted or top-dose-only effect, or another doubt; inactive = flat fitted curve, though single readings scatter.
activity change, negative = inhibition overview
recorded-metric: activity change, negative = inhibition

{"compound": "O=C(O)NCc1ccccc1 (tested in a mixture with another compound)", "reported-result": "-18.9% (inactive)"}
{"compound": "CSc1ccc(NC(=O)[C@H]2CCCC[C@@H]2C(=O)O)cc1", "reported-result": "4.17% (inactive)"}
{"compound": "CC(C)(C)c1ccc(OC(=O)Nc2ccc(O)c(C(=O)O)c2)cc1", "reported-result": "6.49% (inactive)"}
{"compound": "Nc1nc(C(=O)O)c(N=Nc2ccccc2)c(=O)[nH]1", "reported-result": "-22.9% (inactive)"}
{"compound": "O=C(O)CCc1nc(-c2ccccc2-n2cccc2)no1", "reported-result": "8.59% (inactive)"}
{"compound": "O=C1C=C(Nc2nc(C(=O)O)cc(=O)[nH]2)c2ccccc2C1=O", "reported-result": "7.2% (inactive)"}
{"compound": "Cc1ccc(C)c(C(=N)c2ccccc2Cc2ccccc2)c1", "reported-result": "-12.9% (inactive)"}
{"compound": "CCC(=O)OCN1C(=O)C=CC1=O", "reported-result": "-27.8% (inactive)"}
{"compound": "COc1ccc(Oc2ncc3nc(-c4ccc(Cl)cc4)c(=O)n(CCC#N)c3n2)cc1", "reported-result": "0.455% (inactive)"}
{"compound": "Oc1cccc2ccc(SSc3ccc4cccc(O)c4n3)nc12", "reported-result": "-22.6% (inactive)"}
{"compound": "CCCCN(c1ccccc1)c1ncnc2c1cnn2C", "reported-result": "12.1% (inactive)"}
{"compound": "O=C(O)CCSCc1ccc(I)cc1", "reported-result": "1.51% (inactive)"}
{"compound": "NC(N)=N[C@H](CCC(=O)O)C(=O)O", "reported-result": "-4.2% [at 38 µM] (inactive)"}
{"compound": "O=C(O)c1cc(-c2ccc3cc4c(cc3c2)OCO4)nc2ccccc12", "reported-result": "-22.2% (inactive)"}
{"compound": "Cc1cc(Cl)ccc1OCC(=O)Nc1nc(N)nc(N)n1", "reported-result": "1.27% (inactive)"}
{"compound": "CC1CCC(C(=O)O)([C@H](Br)C(=O)O)CC1 (some centres not stated)", "reported-result": "13.7% (inactive)"}
{"compound": "COC(=O)CC[C@@H](C)[C@H]1CC[C@H]2[C@H]3CC[C@H]4C[C@@H]5CC[C@@]4(C)C3(O5)[C@@H](Br)[C@@H](Br)[C@@]12C", "reported-result": "8.56% (inactive)"}
{"compound": "O=C(CSc1nc2ccccc2s1)c1sc2sc3ccccc3[n+]2c1O", "reported-result": "6.64% (inactive)"}
{"compound": "N#CCCSC(=S)[C@H]1CCCC1=N", "reported-result": "-9.46% (inactive)"}
{"compound": "OC[C@@H]1O[C@@H](n2cnc3c(NC4CCCC4)ncnc32)[C@@H](O)[C@H]1O", "reported-result": "1.91% [at 38 µM] (inactive)"}
{"compound": "CCNC(=O)[C@@H]1O[C@@H](n2cnc3c(NCc4ccccc4)ncnc32)[C@@H](O)[C@H]1O", "reported-result": "17% [at 38 µM] (inactive)"}
{"compound": "O=C(O)C(=Cc1ccnc2ccccc12)C(=O)O", "reported-result": "24.2% (inactive)"}
{"compound": "O=C(O)CNCCc1ccccc1", "reported-result": "-3.02% (inactive)"}
{"compound": "COc1ccccc1OC[C@H](O)CN1CCN(CC(=O)Nc2c(C)cccc2C)CC1", "reported-result": "12.3% [at 38 µM] (inactive)"}
{"compound": "OC[C@@H]1O[C@@H](N2CCN([C@@H]3O[C@@H](CO)[C@@H](O)[C@H](O)[C@H]3O)CC2)[C@@H](O)[C@H](O)[C@H]1O", "reported-result": "-2.18% (inactive)"}
{"compound": "CCOC(=O)CCCN", "reported-result": "2.34% (inactive)"}
{"compound": "Cc1ccc(S(=O)(=O)O[C@@H]2[C@H]([C@@H]3COC(C)(C)O3)O[C@H]3OC(C)(C)O[C@@H]32)cc1", "reported-result": "3.01% (inactive)"}
{"compound": "CC(C)(C)c1ccc(OCC(=O)O)c(Cl)c1", "reported-result": "10.5% (inactive)"}
{"compound": "Cc1cnc2cc(Cl)ccc2c1SCC(=O)O", "reported-result": "-0.25% (inactive)"}
{"compound": "Nc1nc(SCCc2ccccc2)c2[nH]cnc2n1", "reported-result": "15.6% (inactive)"}
{"compound": "C[N+]1(C)CCc2cc(O)c(O)cc2[C@H]1Cc1ccc(O)c(O)c1", "reported-result": "-9.29% (inactive)"}
{"compound": "CCC(=O)Nc1ncnc2ncn(C(=O)CC)c12", "reported-result": "1.71% (inactive)"}
{"compound": "c1ccc(CSCCc2ccncc2)cc1", "reported-result": "-10.1% (inactive)"}
{"compound": "Cc1nc2cnc(N3CCNCC3)nc2n(-c2ccccc2)c1=O", "reported-result": "1.83% (inactive)"}
{"compound": "CCCCN1CSC(=S)N(Cc2ccccc2)C1", "reported-result": "-0.909% (inactive)"}
{"compound": "C/C(=N/Nc1nc(C)cc(=O)[nH]1)C(=O)O", "reported-result": "1.78% (inactive)"}
{"compound": "C[N+]1(NCC[N@@+]2(C)CCc3ccccc3C2)CCCCC1", "reported-result": "-23.2% (inactive)"}
{"compound": "COc1cc(N=C(N)N=C(N)N)c2ncccc2c1", "reported-result": "3.48% (inactive)"}
{"compound": "Oc1ccc2ccccc2c1C=NCc1c(O)ccc2ccccc12", "reported-result": "12.6% (inactive)"}
{"compound": "NCCNC(=S)S", "reported-result": "-0.808% (inactive)"}
{"compound": "CN1CCN(c2ccncc2S(=O)(=O)N2CCN(C)CC2)CC1", "reported-result": "-16.5% (inactive)"}
{"compound": "Clc1ccc(-c2noc(CN3CCCCC3)n2)cc1", "reported-result": "2.07% (inactive)"}
{"compound": "C/C(=N/S(=O)(=O)c1ccc(Cl)c(Cl)c1)OCC(C)(C)C", "reported-result": "20% (inactive)"}
{"compound": "CC1=NN(c2ccccc2)C(=O)[C@@H]1N=Nc1ccc(S(N)(=O)=O)cc1", "reported-result": "9.48% (inactive)"}
{"compound": "Oc1ccccc1C(Sc1nc2ccccc2s1)Sc1nc2ccccc2s1", "reported-result": "5.9% (inactive)"}
{"compound": "Nc1n[nH]c2ccccc12", "reported-result": "3.29% (inactive)"}
{"compound": "Oc1cc(CN2COc3ccccc32)c(O)cc1CNC1CCCCC1", "reported-result": "-5.35% (inactive)"}

Source listed as PubChem BioAssay (NCATS).
